Cited source: patent US9469650B2

Parameter CC50, tested on T-47D, listed per item.
Answers are plain numbers, in µM.

Answered cases to consult:
{"Compound": "C=C1C(=O)O[C@H]2[C@H]1CC/C(COC(=O)NCCO)=C\\CC[C@@]1(C)O[C@@H]21 [JVM 2-50]", "Units Of Measure": "µM", "Recorded Value": 87.4}
{"Compound": "C=C1C(=O)O[C@H]2[C@H]1CC/C(COC(=O)NC)=C\\CC[C@@]1(C)O[C@@H]21 [JVM 2-57]", "Units Of Measure": "µM", "Recorded Value": 40.2}
{"Compound": "C=C1C(=O)O[C@H]2[C@H]1CC/C(COC(=O)N1CCN(C)CC1)=C\\CC[C@@]1(C)O[C@@H]21 [JVM 2-44]", "Units Of Measure": "µM", "Recorded Value": 82.3}

Proceeding to the next compound to report its CC50.
## Input Could you share which CC50 value was measured for C=C1C(=O)O[C@H]2[C@H]1CC/C(COC(=O)NCCN1CCCCC1)=C\CC[C@@]1(C)O[C@@H]21 [JVM 2-13] ?
## Output 62.4

###

system: NCI-H23; test: panel of 60 human tumor cell lines, growth inhibition (Non-Small Cell Lung Cancer); conditions: Homo sapiens, NCI-H23
Assay Readout: GI50 (µM)
Give bare numbers, in µM.

{"Molecule Smiles": "C=C1C(=O)O[C@H]2[C@H]1CC/C(COC(=O)OC)=C\\CC[C@@]1(C)O[C@@H]21", "GI50 [µM]": 13}
{"Molecule Smiles": "C=C1C(=O)O[C@H]2[C@H]1CC/C(COC(=O)OCCCN1CCCCC1)=C\\CC[C@@]1(C)O[C@@H]21", "GI50 [µM]": 12.8}
{"Molecule Smiles": "C=C1C(=O)O[C@H]2[C@H]1CC/C(COC(=O)NCCN1CCOCC1)=C\\CC[C@@]1(C)O[C@@H]21", "GI50 [µM]": 15.8}
{"Molecule Smiles": "C=C1C(=O)O[C@H]2[C@H]1CC/C(COC(=S)n1ccnc1)=C\\CC[C@@]1(C)O[C@@H]21", "GI50 [µM]": 13.5}

## Input Param readout= GI50; system= NCI-H23; entry= C=C1C(=O)O[C@H]2[C@H]1CC/C(COC(=O)NCCN1CCCC1)=C\CC[C@@]1(C)O[C@@H]21 ; returns value.
## Output 16.4

###

tested on: HCT-116; experiment: panel of 60 human tumor cell lines, growth inhibition (Colon Cancer); settings: read-out: LC50; HCT-116
Assay Readout: CC50 (µM)
Answers are plain numbers, in µM.

## Input Fill in the blank: the reported CC50 of C=C1C(=O)O[C@H]2[C@H]1CC/C(COC(=O)NCCN1CCCCC1)=C\CC[C@@]1(C)O[C@@H]21 [JVM 2-13] is ____.
## Output 37

###

test system: HCT-116; assay: panel of 60 human tumor cell lines, growth inhibition (Colon Cancer); conditions: HCT-116; Log10 Concentration −4.0
I'd appreciate it if you could supply Percent Growth values for the items below.

{"Compound": "C=C1C(=O)O[C@H]2[C@H]1CC/C(COC(=O)N1CCC(F)(F)CC1)=C\\CC[C@@]1(C)O[C@@H]21 [JVM 2-66]", "Recorded Value": "−100%"}
{"Compound": "C=C1C(=O)O[C@H]2[C@H]1CC/C(COC(=O)NCCN1CCCCC1)=C\\CC[C@@]1(C)O[C@@H]21 [JVM 2-13]", "Recorded Value": "−92%"}
{"Compound": "C=C1C(=O)O[C@H]2[C@H]1CC/C(COC(=O)NCCc1ccccn1)=C\\CC[C@@]1(C)O[C@@H]21 [JVM 61]", "Recorded Value": "−99%"}

Let us move to another entry and its Percent Growth.
## Input Suppose we examine the compound C=C1C(=O)O[C@H]2[C@H]1CC/C(COC(=O)NC)=C\CC[C@@]1(C)O[C@@H]21 [JVM 2-57] ; what Percent Growth value has been reported?
## Output −98%

###

system: RXF 393
Assay Readout: CC50 (µM)
Answers are plain numbers, in µM.

Use these answered entries as a reference point.
{"Molecule Smiles": "C=C1C(=O)O[C@H]2[C@H]1CC/C(COC(=O)NCCN1CCCCC1)=C\\CC[C@@]1(C)O[C@@H]21", "CC50 [µM]": 37.3}
{"Molecule Smiles": "C=C1C(=O)O[C@H]2[C@H]1CC/C(COC(=O)CCC(=O)N1CCC(C)CC1)=C\\CC[C@@]1(C)O[C@@H]21", "CC50 [µM]": 9.41}
{"Molecule Smiles": "C=C1C(=O)O[C@H]2[C@H]1CC/C(COC(=O)NC)=C\\CC[C@@]1(C)O[C@@H]21", "CC50 [µM]": 44.1}

Please give CC50 for each item listed below.
1. C=C1C(=O)O[C@H]2[C@H]1CC/C(COC(=O)N1CCC(F)(F)CC1)=C\CC[C@@]1(C)O[C@@H]21
2. C=C1C(=O)O[C@H]2[C@H]1CC/C(COC(=O)NCCO)=C\CC[C@@]1(C)O[C@@H]21
3. C=C1C(=O)O[C@H]2[C@H]1CC/C(COC(=O)N1CCN(C)CC1)=C\CC[C@@]1(C)O[C@@H]21

## Output
1: 5.33; 2: 62.5; 3: 48.6

###

Provide the recorded IC (TGI) for the entries that follow.
test system: IGROV1; test: panel of 60 human tumor cell lines, growth inhibition (Ovarian Cancer); details: Homo sapiens, IGROV-1, read-out: TGI
Answers are plain numbers, in µM.

Before answering, review these 2 worked examples.
{"Molecule Smiles": "C=C1C(=O)O[C@H]2[C@H]1CC/C(COC(=O)CCC(=O)NCc1ccc(Cl)nc1)=C\\CC[C@@]1(C)O[C@@H]21", "IC (TGI) (µM)": 39.9}
{"Molecule Smiles": "C=C1C(=O)O[C@H]2[C@H]1CC/C(COC(=O)OC)=C\\CC[C@@]1(C)O[C@@H]21", "IC (TGI) (µM)": 37.7}

For each entry beneath this line, provide reported IC (TGI).
1. C=C1C(=O)O[C@H]2[C@H]1CC/C(COC(=O)Nc1n[nH]c(SC)n1)=C\CC[C@@]1(C)O[C@@H]21
2. C=C1C(=O)O[C@H]2[C@H]1CC/C(COC(=O)NCCc1ccccn1)=C\CC[C@@]1(C)O[C@@H]21

## Output
1: 14.2; 2: 33.8

###

tested on: SF-295
Assignment: determine reported CC50 for the given compounds.

Worked examples, 2 compounds total:
{"Molecule Smiles": "C=C1C(=O)O[C@H]2[C@H]1CC/C(COC(=O)NC)=C\\CC[C@@]1(C)O[C@@H]21", "Assay Readout": "CC50", "Recorded Value": "> 100 µM"}
{"Molecule Smiles": "C=C1C(=O)O[C@H]2[C@H]1CC/C(COC(=O)NCCO)=C\\CC[C@@]1(C)O[C@@H]21", "Assay Readout": "CC50", "Recorded Value": "> 100 µM"}

I would be grateful if you could provide CC50 for each of the following entries.
1. C=C1C(=O)O[C@H]2[C@H]1CC/C(COC(=O)N1CCN(C)CC1)=C\CC[C@@]1(C)O[C@@H]21
2. C=C1C(=O)O[C@H]2[C@H]1CC/C(COC(=O)N1CCC(F)(F)CC1)=C\CC[C@@]1(C)O[C@@H]21
3. C=C1C(=O)O[C@H]2[C@H]1CC/C(COC(=O)CCC(=O)N1CCC(C)CC1)=C\CC[C@@]1(C)O[C@@H]21
4. C=C1C(=O)O[C@H]2[C@H]1CC/C(COC(=O)NCCN1CCCCC1)=C\CC[C@@]1(C)O[C@@H]21

## Output
1: > 100 µM; 2: 51.5 µM; 3: 71 µM; 4: > 100 µM

###

test system: UACC-62
// boundary case: CC50 equal to 50 µM maps to not met; strictly smaller maps to met

These recorded examples may help you get a feel for the data.
{"Molecule": "C=C1C(=O)O[C@H]2[C@H]1CC/C(COC(=O)NCCO)=C\\CC[C@@]1(C)O[C@@H]21 [JVM 2-50]", "Group": "not met"}
{"Molecule": "C=C1C(=O)O[C@H]2[C@H]1CC/C(COC(=O)N1CCC(F)(F)CC1)=C\\CC[C@@]1(C)O[C@@H]21 [JVM 2-66]", "Group": "met"}

API: the following record is the query input.
## Input Field: below-cutoff. Rule: recorded CC50 strictly less than 50 µM. Subject: C=C1C(=O)O[C@H]2[C@H]1CC/C(COC(=O)N1CCN(C)CC1)=C\CC[C@@]1(C)O[C@@H]21 [JVM 2-44]
## Output not met

###

tested on: HCT-116; test: panel of 60 human tumor cell lines, growth inhibition (Colon Cancer); details: HCT-116; Log10 Concentration −7.0
Assign Percent Growth to each entry below.
Answers are plain numbers, in %.

Below, each entry is followed by its recorded Percent Growth result.
{"Molecule Smiles": "C=C1C(=O)O[C@H]2[C@H]1CC/C(COC(=O)NCCO)=C\\CC[C@@]1(C)O[C@@H]21", "Study Target": "HCT-116", "Recorded Value": 96}
{"Molecule Smiles": "C=C1C(=O)O[C@H]2[C@H]1CC/C(COC(=O)N1CCN(C)CC1)=C\\CC[C@@]1(C)O[C@@H]21", "Study Target": "HCT-116", "Recorded Value": 99}
{"Molecule Smiles": "C=C1C(=O)O[C@H]2[C@H]1CC/C(COC(=O)N1CCC(F)(F)CC1)=C\\CC[C@@]1(C)O[C@@H]21", "Study Target": "HCT-116", "Recorded Value": 93}

We now examine a further compound.
## Input Given the compound C=C1C(=O)O[C@H]2[C@H]1CC/C(COC(=O)NCCN1CCCCC1)=C\CC[C@@]1(C)O[C@@H]21 , what is its reported Percent Growth?
## Output 96
